assay: Human PK, second comparative study: single dose food and PPI assessment of 100 mg powder-in-capsule (Panels J-M); type: in vivo; conditions: plasma, oral, 100 mg PIC single dose, Panel M: high fat breakfast + rabeprazole 20 mg BID, read-out: plasma Cmax, Mean

{"columns": ["Molecule", "Units symbol", "Cmax"],
 "data": [
  ["C[C@H]1CN(C2COC2)CCN1c1ccc(Nc2cc(-c3ccnc(N4CCn5c(cc6c5CC(C)(C)C6)C4=O)c3CO)cn(C)c2=O)nc1 [Compound (I) free base]", "nM", 40.6]
]}

###

assay: Solubility of compound (I) free base in buffers of varying pH, FeSSIF and FaSSIF; format: physicochemical; conditions: aqueous buffer, pH 5.04, aqueous buffer; read-out: Solubility
Observation type: solubility (µg/mL)

{"columns": ["Compound", "Observation type", "Units symbol", "Numeric readout"],
 "data": [
  ["C[C@H]1CN(C2COC2)CCN1c1ccc(Nc2cc(-c3ccnc(N4CCn5c(cc6c5CC(C)(C)C6)C4=O)c3CO)cn(C)c2=O)nc1 [Compound (I) free base]", "solubility", "µg/mL", 1]
]}

###

assay: Human PK, second comparative study: single dose food and PPI assessment of 100 mg powder-in-capsule (Panels J-M); assay type: in vivo; conditions: plasma, oral, 100 mg PIC single dose, Panel L: fasted + rabeprazole 20 mg BID, read-out: plasma AUC0-24, Mean
Observation type: AUC(0-t) (µM·h)

{"columns": ["Molecule", "Numeric readout"],
 "data": [
  ["C[C@H]1CN(C2COC2)CCN1c1ccc(Nc2cc(-c3ccnc(N4CCn5c(cc6c5CC(C)(C)C6)C4=O)c3CO)cn(C)c2=O)nc1 [Compound (I) free base]", 0.157]
]}

###

assay: Solubility of compound (I) free base in buffers of varying pH, FeSSIF and FaSSIF; assay type: physicochemical; settings: aqueous buffer, pH 6.94, aqueous buffer; read-out: Solubility
Observation type: solubility (µg/mL)

{"columns": ["Compound", "Numeric readout"],
 "data": [
  ["C[C@H]1CN(C2COC2)CCN1c1ccc(Nc2cc(-c3ccnc(N4CCn5c(cc6c5CC(C)(C)C6)C4=O)c3CO)cn(C)c2=O)nc1 [Compound (I) free base]", 1]
]}

###

assay: Human PK, second comparative study: single dose food and PPI assessment of 100 mg powder-in-capsule (Panels J-M); format: in vivo; conditions: plasma, oral, 100 mg, 100 mg PIC single dose, Panel J: fasted, no PPI, read-out: plasma AUC0-24, Median

{"columns": ["Compound", "AUC(0-t) [µM·h]"],
 "data": [
  ["C[C@H]1CN(C2COC2)CCN1c1ccc(Nc2cc(-c3ccnc(N4CCn5c(cc6c5CC(C)(C)C6)C4=O)c3CO)cn(C)c2=O)nc1 [Compound (I) free base]", 0.98]
]}

###

test: Human PK, second comparative study: single dose food and PPI assessment of 100 mg powder-in-capsule (Panels J-M); type: in vivo; settings: plasma, oral, 100 mg, 100 mg PIC single dose, Panel K: high fat breakfast, no PPI, read-out: plasma Cmax, Median
Observation type: Cmax

{"columns": ["Molecule", "Observation type", "Result"],
 "data": [
  ["C[C@H]1CN(C2COC2)CCN1c1ccc(Nc2cc(-c3ccnc(N4CCn5c(cc6c5CC(C)(C)C6)C4=O)c3CO)cn(C)c2=O)nc1 [Compound (I) free base]", "Cmax", "250 nM"]
]}

The reported numbers originate from patent US10246461B2.
